Ref: patent US20150038545A1

IC50 for assorted compounds
tested on: MCG803; experiment: Cancer cell growth inhibition (CellTiter-Glo), MCG803; assay type: cell-based, Human; conditions: Homo sapiens; Gastric Cancer, MCG803, 72 h treatment
# output: number + unit

Reference set (3 entries):
O=C(CCCCCNC(=O)c1[nH]c(-c2ccc(O)cc2)cc1-c1ccccc1)NO ... 3.08 µM
O=C(CCCCCNC(=O)c1[nH]c(-c2ccc(O)cc2)cc1-c1ccoc1)NO ... 2.61 µM
O=C(CCCCCNC(=O)c1[nH]c(-c2ccc(O)cc2)cc1-c1ccsc1)NO ... 2.82 µM

Now examine the next entry.
INPUT: If you can, please state the reported IC50 value of O=C(CCCCCNC(=O)c1[nH]c(-c2ccccc2)cc1-c1ccc(O)cc1)NO .
OUTPUT: 1.11 µM

====

system: SK-HEP-1; assay: Cancer cell growth inhibition (CellTiter-Glo), SK-HEP-1; assay type: cell-based; settings: Homo sapiens, SK-HEP1; Liver Cancer, SK-HEP-1, 72 h treatment
# note: boundary value 3 µM maps to Not fulfilled; IC50 below it maps to Fulfilled

INPUT: Quick check: does O=C(CCCCCNC(=O)c1[nH]c(-c2ccccc2)cc1-c1ccc(O)cc1)NO have IC50 under 3 µM?
OUTPUT: Not fulfilled

INPUT: Identify whether the molecule CO[C@@]12[C@H](COC(N)=O)C3=C(C(=O)C(C)=C(N)C3=O)N1C[C@@H]1N[C@@H]12 [Mitomycin, reference compound] records IC50 below 3 µM.
OUTPUT: Not fulfilled

INPUT: Given O=C(CCCCCNC(=O)c1[nH]c(-c2ccc(O)cc2)cc1-c1ccoc1)NO , is recorded IC50 strictly lower than 3 µM?
OUTPUT: Fulfilled

INPUT: Lab note: IC50 threshold 3 µM. Does this molecule come in strictly under it? O=C(CCCCCNC(=O)c1[nH]c(-c2ccc(O)cc2)cc1-c1ccsc1)NO
OUTPUT: Not fulfilled

INPUT: Determine whether this molecule shows IC50 lower than 3 µM (ties excluded): O=C(CCCCCNC(=O)c1[nH]c(-c2ccc(O)cc2)cc1-c1ccccc1)NO
OUTPUT: Not fulfilled

====

molecular target: Human HDAC3/NcoR2 (Homo sapiens); construct: Complex of human HDAC3, full length with C-terminal His tag, MW=49.7 kDa; His (C); purchased BioMol SE-507; assay: In vitro HDAC3 inhibition, fluorogenic peptide assay; format: biochemical; details: read-out: IC50 (nM) of enzyme activity HDAC3
Sequence (O15379 whole entry): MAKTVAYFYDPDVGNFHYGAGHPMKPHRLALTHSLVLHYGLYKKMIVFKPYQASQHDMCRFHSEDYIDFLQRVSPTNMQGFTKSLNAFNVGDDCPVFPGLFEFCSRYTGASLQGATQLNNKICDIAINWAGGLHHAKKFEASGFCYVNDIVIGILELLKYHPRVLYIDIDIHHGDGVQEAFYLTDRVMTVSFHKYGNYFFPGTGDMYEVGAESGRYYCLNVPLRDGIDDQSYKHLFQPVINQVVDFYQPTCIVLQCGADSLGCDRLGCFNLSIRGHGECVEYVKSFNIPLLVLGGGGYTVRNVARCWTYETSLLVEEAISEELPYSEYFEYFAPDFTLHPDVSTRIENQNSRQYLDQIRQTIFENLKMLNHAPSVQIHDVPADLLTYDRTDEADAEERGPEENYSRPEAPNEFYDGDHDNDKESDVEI
Sequence (Q9Y618 395-489 partner limits assumed): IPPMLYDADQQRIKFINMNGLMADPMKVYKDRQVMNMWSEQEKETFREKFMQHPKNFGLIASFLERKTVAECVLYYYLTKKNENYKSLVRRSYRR
measurementKind: IC50 (nM)
Write it as a number; the unit nM goes unstated.

Previously resolved entries follow.
O=C(CCCCCNC(=O)c1[nH]c(-c2ccc(O)cc2)cc1-c1ccccc1)NO ... 250
COc1ccc(-c2cc(-c3ccccc3)c(C(=O)NCCCCCC(=O)NO)[nH]2)cc1 [Compound B, reference compound] ... 415
O=C(CCCCCNC(=O)c1[nH]c(-c2ccoc2)cc1-c1ccc(O)cc1)NO ... 341

Next compound, please.
INPUT: So what's the measured IC50 for this one? COc1ccc(-c2cc(-c3ccccc3)[nH]c2C(=O)NCCCCCC(=O)NO)cc1 [Compound A, reference compound]
OUTPUT: 572
